# System: S180-bearing mice
# experiment_description: Bio-distribution in tumor-bearing mice
# Type: in vivo
# measurement_parameters: S180-bearing mice, tail vein, 120 min
assay_metric: Lung uptake (% ID/g)
State the answer as a number, implicitly in % ID/g.

// returns Lung uptake for O=C(CCC[N+]#[C][99Tc-5]([C]#[N+]CCCC(=O)NC1C(O)OC(CO)C(O)C1O)([C]#[N+]CCCC(=O)NC1C(O)OC(CO)C(O)C1O)([C]#[N+]CCCC(=O)NC1C(O)OC(CO)C(O)C1O)([C]#[N+]CCCC(=O)NC1C(O)OC(CO)C(O)C1O)[C]#[N+]CCCC(=O)NC1C(O)OC(CO)C(O)C1O)NC1C(O)OC(CO)C(O)C1O (stereo not shown) [[^99mTc-(CN3DG)6]^+] with S180-bearing mice; value = 0.17

Measured Lung uptake (S180-bearing mice), entry O=C(CCCCC[N+]#[C][99Tc-5]([C]#[N+]CCCCCC(=O)NC1C(O)OC(CO)C(O)C1O)([C]#[N+]CCCCCC(=O)NC1C(O)OC(CO)C(O)C1O)([C]#[N+]CCCCCC(=O)NC1C(O)OC(CO)C(O)C1O)([C]#[N+]CCCCCC(=O)NC1C(O)OC(CO)C(O)C1O)[C]#[N+]CCCCCC(=O)NC1C(O)OC(CO)C(O)C1O)NC1C(O)OC(CO)C(O)C1O (stereo not shown) [[^99mTc-(CN5DG)6]^+] : 0.29

Tested on S180-bearing mice, the item O=C(CC[N+]#[C][99Tc-5]([C]#[N+]CCC(=O)NC1C(O)OC(CO)C(O)C1O)([C]#[N+]CCC(=O)NC1C(O)OC(CO)C(O)C1O)([C]#[N+]CCC(=O)NC1C(O)OC(CO)C(O)C1O)([C]#[N+]CCC(=O)NC1C(O)OC(CO)C(O)C1O)[C]#[N+]CCC(=O)NC1C(O)OC(CO)C(O)C1O)NC1C(O)OC(CO)C(O)C1O (stereo not shown) [[^99mTc-(CN2DG)6]^+] showed Lung uptake equal to 0.09

Query O=C(CCCC[N+]#[C][99Tc-5]([C]#[N+]CCCCC(=O)NC1C(O)OC(CO)C(O)C1O)([C]#[N+]CCCCC(=O)NC1C(O)OC(CO)C(O)C1O)([C]#[N+]CCCCC(=O)NC1C(O)OC(CO)C(O)C1O)([C]#[N+]CCCCC(=O)NC1C(O)OC(CO)C(O)C1O)[C]#[N+]CCCCC(=O)NC1C(O)OC(CO)C(O)C1O)NC1C(O)OC(CO)C(O)C1O (stereo not shown) [[^99mTc-(CN4DG)6]^+] on S180-bearing mice; Lung uptake returned: 0.13

* * *

Answer each item with its documented Muscle uptake.
# Tested on: S180-bearing mice
# experiment_description: Bio-distribution in tumor-bearing mice
# Assay type: in vivo
# measurement_parameters: S180-bearing mice, tail vein, 120 min
# include the unit after the value

Form field Muscle uptake, entry O=C(CCCCC[N+]#[C][99Tc-5]([C]#[N+]CCCCCC(=O)NC1C(O)OC(CO)C(O)C1O)([C]#[N+]CCCCCC(=O)NC1C(O)OC(CO)C(O)C1O)([C]#[N+]CCCCCC(=O)NC1C(O)OC(CO)C(O)C1O)([C]#[N+]CCCCCC(=O)NC1C(O)OC(CO)C(O)C1O)[C]#[N+]CCCCCC(=O)NC1C(O)OC(CO)C(O)C1O)NC1C(O)OC(CO)C(O)C1O (stereo not shown) [[^99mTc-(CN5DG)6]^+] : 0.18 ± 0.03 % ID/g

Entry O=C(CCC[N+]#[C][99Tc-5]([C]#[N+]CCCC(=O)NC1C(O)OC(CO)C(O)C1O)([C]#[N+]CCCC(=O)NC1C(O)OC(CO)C(O)C1O)([C]#[N+]CCCC(=O)NC1C(O)OC(CO)C(O)C1O)([C]#[N+]CCCC(=O)NC1C(O)OC(CO)C(O)C1O)[C]#[N+]CCCC(=O)NC1C(O)OC(CO)C(O)C1O)NC1C(O)OC(CO)C(O)C1O (stereo not shown) [[^99mTc-(CN3DG)6]^+] , Muscle uptake reported as 0.17 ± 0.05 % ID/g

Value of measured Muscle uptake for the entry O=C(CC[N+]#[C][99Tc-5]([C]#[N+]CCC(=O)NC1C(O)OC(CO)C(O)C1O)([C]#[N+]CCC(=O)NC1C(O)OC(CO)C(O)C1O)([C]#[N+]CCC(=O)NC1C(O)OC(CO)C(O)C1O)([C]#[N+]CCC(=O)NC1C(O)OC(CO)C(O)C1O)[C]#[N+]CCC(=O)NC1C(O)OC(CO)C(O)C1O)NC1C(O)OC(CO)C(O)C1O (stereo not shown) [[^99mTc-(CN2DG)6]^+] : 0.04 ± 0.01 % ID/g

Lookup result for O=C(CCCC[N+]#[C][99Tc-5]([C]#[N+]CCCCC(=O)NC1C(O)OC(CO)C(O)C1O)([C]#[N+]CCCCC(=O)NC1C(O)OC(CO)C(O)C1O)([C]#[N+]CCCCC(=O)NC1C(O)OC(CO)C(O)C1O)([C]#[N+]CCCCC(=O)NC1C(O)OC(CO)C(O)C1O)[C]#[N+]CCCCC(=O)NC1C(O)OC(CO)C(O)C1O)NC1C(O)OC(CO)C(O)C1O (stereo not shown) [[^99mTc-(CN4DG)6]^+] ; measured Muscle uptake: 0.15 ± 0.07 % ID/g

* * *

# Tested on: S180-bearing mice
# experiment_description: Bio-distribution in tumor-bearing mice
# Format: in vivo
# measurement_parameters: S180-bearing mice, tail vein, 30 min
assay_metric: Heart uptake (% ID/g)
Output spec: scalar in % ID/g, unitless text.

Lab note: O=C(CCCC[N+]#[C][99Tc-5]([C]#[N+]CCCCC(=O)NC1C(O)OC(CO)C(O)C1O)([C]#[N+]CCCCC(=O)NC1C(O)OC(CO)C(O)C1O)([C]#[N+]CCCCC(=O)NC1C(O)OC(CO)C(O)C1O)([C]#[N+]CCCCC(=O)NC1C(O)OC(CO)C(O)C1O)[C]#[N+]CCCCC(=O)NC1C(O)OC(CO)C(O)C1O)NC1C(O)OC(CO)C(O)C1O (stereo not shown) [[^99mTc-(CN4DG)6]^+] gave Heart uptake of 0.70

So for O=C(CCCCC[N+]#[C][99Tc-5]([C]#[N+]CCCCCC(=O)NC1C(O)OC(CO)C(O)C1O)([C]#[N+]CCCCCC(=O)NC1C(O)OC(CO)C(O)C1O)([C]#[N+]CCCCCC(=O)NC1C(O)OC(CO)C(O)C1O)([C]#[N+]CCCCCC(=O)NC1C(O)OC(CO)C(O)C1O)[C]#[N+]CCCCCC(=O)NC1C(O)OC(CO)C(O)C1O)NC1C(O)OC(CO)C(O)C1O (stereo not shown) [[^99mTc-(CN5DG)6]^+] , the logged Heart uptake turned out to be 0.64

Noted for O=C(CC[N+]#[C][99Tc-5]([C]#[N+]CCC(=O)NC1C(O)OC(CO)C(O)C1O)([C]#[N+]CCC(=O)NC1C(O)OC(CO)C(O)C1O)([C]#[N+]CCC(=O)NC1C(O)OC(CO)C(O)C1O)([C]#[N+]CCC(=O)NC1C(O)OC(CO)C(O)C1O)[C]#[N+]CCC(=O)NC1C(O)OC(CO)C(O)C1O)NC1C(O)OC(CO)C(O)C1O (stereo not shown) [[^99mTc-(CN2DG)6]^+] : its Heart uptake reads 0.34

The compound identified as O=C(CCC[N+]#[C][99Tc-5]([C]#[N+]CCCC(=O)NC1C(O)OC(CO)C(O)C1O)([C]#[N+]CCCC(=O)NC1C(O)OC(CO)C(O)C1O)([C]#[N+]CCCC(=O)NC1C(O)OC(CO)C(O)C1O)([C]#[N+]CCCC(=O)NC1C(O)OC(CO)C(O)C1O)[C]#[N+]CCCC(=O)NC1C(O)OC(CO)C(O)C1O)NC1C(O)OC(CO)C(O)C1O (stereo not shown) [[^99mTc-(CN3DG)6]^+] registered its Heart uptake at 0.40

* * *

# Test system: S180-bearing mice
# experiment_description: Bio-distribution in tumor-bearing mice
# Assay type: in vivo
# measurement_parameters: tumor-bearing mice, 0.5 hour after injection
I'd be grateful if you could share measured Tumor/liver ratio for these entries.
Respond numerically, and do not add a unit to the figure.

// sample O=C(CCCCC[N+]#[C][99Tc-5]([C]#[N+]CCCCCC(=O)NC1C(O)OC(CO)C(O)C1O)([C]#[N+]CCCCCC(=O)NC1C(O)OC(CO)C(O)C1O)([C]#[N+]CCCCCC(=O)NC1C(O)OC(CO)C(O)C1O)([C]#[N+]CCCCCC(=O)NC1C(O)OC(CO)C(O)C1O)[C]#[N+]CCCCCC(=O)NC1C(O)OC(CO)C(O)C1O)NC1C(O)OC(CO)C(O)C1O (stereo not shown) [[^99mTc-(CN5DG)6]^+] , its Tumor/liver ratio was 3.00

According to the records, this compound O=C(CCCC[N+]#[C][99Tc-5]([C]#[N+]CCCCC(=O)NC1C(O)OC(CO)C(O)C1O)([C]#[N+]CCCCC(=O)NC1C(O)OC(CO)C(O)C1O)([C]#[N+]CCCCC(=O)NC1C(O)OC(CO)C(O)C1O)([C]#[N+]CCCCC(=O)NC1C(O)OC(CO)C(O)C1O)[C]#[N+]CCCCC(=O)NC1C(O)OC(CO)C(O)C1O)NC1C(O)OC(CO)C(O)C1O (stereo not shown) [[^99mTc-(CN4DG)6]^+] displays Tumor/liver ratio of 2.60

The reported Tumor/liver ratio of the compound O=C(CC[N+]#[C][99Tc-5]([C]#[N+]CCC(=O)NC1C(O)OC(CO)C(O)C1O)([C]#[N+]CCC(=O)NC1C(O)OC(CO)C(O)C1O)([C]#[N+]CCC(=O)NC1C(O)OC(CO)C(O)C1O)([C]#[N+]CCC(=O)NC1C(O)OC(CO)C(O)C1O)[C]#[N+]CCC(=O)NC1C(O)OC(CO)C(O)C1O)NC1C(O)OC(CO)C(O)C1O (stereo not shown) [[^99mTc-(CN2DG)6]^+] was 3.11

Data point: O=C(CCC[N+]#[C][99Tc-5]([C]#[N+]CCCC(=O)NC1C(O)OC(CO)C(O)C1O)([C]#[N+]CCCC(=O)NC1C(O)OC(CO)C(O)C1O)([C]#[N+]CCCC(=O)NC1C(O)OC(CO)C(O)C1O)([C]#[N+]CCCC(=O)NC1C(O)OC(CO)C(O)C1O)[C]#[N+]CCCC(=O)NC1C(O)OC(CO)C(O)C1O)NC1C(O)OC(CO)C(O)C1O (stereo not shown) [[^99mTc-(CN3DG)6]^+] ; Tumor/liver ratio = 3.82

Numbers sourced from patent US11628228B2.
